System: blackgrass (Alopecurus myosuroides)
assay-text: Test B pre-/postemergence
Format: in vivo
condition-description: Rate 500 g/ha, Postemergence
This listing pairs compounds with measured Plant response rating, Blackgrass.
endpoint-name: Plant response rating, Blackgrass

* Cc1cnc(-n2ccc(C(F)(F)F)n2)nc1Cn1ccc(C(F)(F)F)n1 [Compound 52] | 9
* Cc1cnc(-n2cnc(C(F)(F)F)n2)nc1C(=O)c1cccc(C(F)(F)F)c1 [Compound 67] | 10
* Cc1cnc(-c2ccc(C(F)(F)F)cc2)nc1Cc1cccc(C(F)(F)F)c1 [Example 1] | 9
* Cc1cnc(-c2ccc(C(F)(F)F)cc2)nc1Cn1nc(C(F)(F)F)cc1C [Compound 13] | 5

----------
Tested on: soybean (Glycine max)
assay-text: Test B pre-/postemergence
Assay type: in vivo
condition-description: Rate 62 g/ha, Postemergence
endpoint-name: Plant response rating, Soybean

* CCc1cnc(-c2ccc(C(F)(F)F)cc2)nc1Cc1cccc(C(F)(F)F)c1 [Compound 22] | 6
* Cc1cnc(-c2ccc(Cl)cc2)nc1Cc1cccc(C(F)(F)F)c1 [Compound 28] | 4
* Cc1cnc(-c2ccc(C#N)cc2)nc1Cc1cccc(C(F)(F)F)c1 [Compound 30] | 3
* Cc1cnc(-c2ccc(F)c(Cl)c2)nc1Cc1cccc(C(F)(F)F)c1 [Compound 25] | 4

----------
Overview of recorded Blackgrass plant response rating for various compounds
Tested on: blackgrass (Alopecurus myosuroides)
assay-text: Test B pre-/postemergence
Type: in vivo
condition-description: Rate 62 g/ha, Preemergence
endpoint-name: Blackgrass plant response rating

• CCc1cnc(-n2ccc(C(F)(F)F)n2)nc1Cc1cccc(OC(F)(F)F)c1 = 3
• Cc1cnc(-c2ccc(F)c(Cl)c2)nc1Cc1cccc(C#N)c1 = 0
• CCc1cnc(-c2ccc(C(F)(F)F)cc2)nc1Cc1cccc(OC(F)(F)F)c1 = 7

----------
Tested on: broadleaf signalgrass (Brachiaria decumbens)
assay-text: Test B pre-/postemergence
Format: in vivo
condition-description: Rate 125 g/ha, Postemergence
endpoint-name: Plant response rating, B. signalgrass

• Cc1cnc(-c2ccc(Cl)cc2)nc1Cc1cccc(C#N)c1 = 1
• Cc1cnc(-c2ccccc2F)nc1Cc1cccc(C#N)c1 = 0
• Cc1cnc(-c2ccc(C(F)(F)F)cc2)nc1C(Cl)c1cccc(C(F)(F)F)c1 (racemic) = 4

----------
Test system: soybean (Glycine max)
assay-text: Test B pre-/postemergence
Assay type: in vivo
condition-description: Rate 62 g/ha, Postemergence
// values below are reported Plant response rating, Soybean
endpoint-name: Plant response rating, Soybean

- Cc1cnc(-n2ccc(C(F)(F)F)n2)nc1Cc1cccc(C(F)(F)F)c1: 6
- Cc1cnc(-c2ccc(C(F)(F)F)cc2)nc1Cc1cccc(C(F)(F)F)c1: 8
- Cc1cnc(-c2ccc(C(F)(F)F)cc2)nc1Cc1cccc(C#N)c1: 4
- Cc1cnc(-c2ccc(C(F)(F)F)cc2)nc1Cn1cnc(C(F)(F)F)n1: 5

----------
System: crabgrass (Digitaria sanguinalis)
assay-text: Test B pre-/postemergence
Assay type: in vivo
Parameters: key: 0 is no effect; 10 is complete control
condition-description: Rate 62 g/ha, Preemergence
This listing pairs molecules with measured Crabgrass plant response rating.
endpoint-name: Crabgrass plant response rating

- Cc1cnc(-c2cccc(C(F)(F)F)c2)nc1Cc1cccc(C#N)c1 [Compound 39]: 0
- Cc1cnc(-c2ccc(F)c(Cl)c2)nc1Cc1cccc(C(F)(F)F)c1 [Compound 25]: 0
- Cc1cnc(-c2ccc(Cl)cc2F)nc1Cc1cccc(C#N)c1 [Compound 35]: 0
- CCc1cnc(-n2cnc(C(F)(F)F)c2)nc1Cc1cccc(OC(F)(F)F)c1 [Compound 49]: 5

----------
Tested on: sugar beet (Beta vulgaris)
assay-text: Test B pre-/postemergence
Format: in vivo
condition-description: Rate 62 g/ha, Preemergence
Assign Fulfilled to entries whose Sugarbeets plant response rating meets or exceeds 3; assign Not fulfilled to the rest.

* Cc1cnc(-c2ccc(C(F)(F)F)cc2)nc1C(C#N)c1cccc(C(F)(F)F)c1 (racemic) [Compound 17] | Not fulfilled
* CCc1cnc(-n2ccc(C(F)(F)F)n2)nc1Cc1cccc(C(F)(F)F)c1 [Compound 46] | Fulfilled
* Cc1cnc(-c2ccc(Cl)cc2)nc1Cc1cccc(C(F)(F)F)c1 [Compound 28] | Not fulfilled
* COC(c1cccc(C(F)(F)F)c1)c1nc(-c2ccc(C(F)(F)F)cc2)ncc1C (racemic) [Compound 20] | Not fulfilled
* Cc1cnc(-c2ccc(C#N)cc2)nc1Cc1cccc(C(F)(F)F)c1 [Compound 30] | Fulfilled
* Cc1cnc(-n2ccc(C(F)(F)F)n2)nc1Cn1ccc(C(F)(F)F)n1 [Compound 52] | Fulfilled
* CCc1cnc(-n2cnc(C(F)(F)F)n2)nc1Cc1cccc(OC(F)(F)F)c1 [Compound 50] | Fulfilled
* Cc1cnc(-c2ccc(C(F)(F)F)cc2)nc1Cn1cnc(C(F)(F)F)c1 [Compound 10] | Fulfilled
* Cc1cnc(-c2ccc(C(F)(F)F)cc2)nc1Cn1cc(I)cn1 [Compound 12] | Fulfilled
* Cc1cnc(-n2ccc(C(F)(F)F)n2)nc1Cc1cccc(C(F)(F)F)c1 [Example 2] | Fulfilled

----------
System: blackgrass (Alopecurus myosuroides)
assay-text: Test B pre-/postemergence
Format: in vivo
condition-description: Rate 250 g/ha, Preemergence
Description: […] At the same time, these crop and weed species were also treated with postemergence applications of test chemicals formulated in the same manner. […] Treated plants and controls were maintained in a greenhouse for twelve to sixteen days, after which all species were compared to controls and visually evaluated. […]
endpoint-name: Plant response rating, Blackgrass

• Cc1cnc(-c2ccc(C(F)(F)F)cc2)nc1Cn1cnc(C(F)(F)F)n1 [Compound 11] = 5
• COC(=O)C(c1cccc(C(F)(F)F)c1)c1nc(-c2ccc(C(F)(F)F)cc2)ncc1C (racemic) [Compound 18] = 1
• Cc1cnc(-n2ccc(C(F)(F)F)n2)nc1C(=O)c1ccc(C(F)(F)F)cc1 [Compound 65] = 0
• CCc1cnc(-n2ccc(C(F)(F)F)n2)nc1C(=O)c1cccc(C#N)c1 [Compound 72] = 4
• Cc1cnc(-c2ccc(C(F)(F)F)cc2)nc1C(C#N)c1cccc(C(F)(F)F)c1 (racemic) [Compound 17] = 9

----------
Tested on: blackgrass (Alopecurus myosuroides)
assay-text: Test B pre-/postemergence
Assay type: in vivo
condition-description: Rate 62 g/ha, Preemergence
Label 0 if Blackgrass plant response rating falls below 2; label 1 in every other case.

- Cc1cnc(-c2ccc(C(F)(F)F)cc2)nc1Cc1cccc(C(F)(F)F)c1 [Example 1]: 1
- CCc1cnc(-n2ccc(C(F)(F)F)n2)nc1Cc1cccc(C(F)(F)F)c1 [Compound 46]: 1
- COC(=O)C(c1cccc(C(F)(F)F)c1)c1nc(-c2ccc(C(F)(F)F)cc2)ncc1C (racemic) [Compound 18]: 0
- Cc1cnc(-c2ccc(C(F)(F)F)cc2)nc1Cc1cccc(C#N)c1 [Compound 32]: 0
- Cc1cnc(-n2ccc(C(F)(F)F)n2)nc1Cn1ccc(C(F)(F)F)n1 [Compound 52]: 1

----------
Test system: bedstraw (Galium aparine)
assay-text: Test B pre-/postemergence
Format: in vivo
Parameters: key: 0 is no effect; 10 is complete control
condition-description: Rate 500 g/ha, Postemergence
endpoint-name: Plant response rating, Bedstraw

- Cc1cnc(-c2ccc(C(F)(F)F)cc2)nc1Cn1cnc(C(F)(F)F)n1: 10
- Cc1cnc(-c2ccc(C(F)(F)F)cc2)nc1Cn1ccc(C#N)n1: 10
- Cc1cnc(-c2ccc(C(F)(F)F)cc2)nc1Cn1cc(I)cn1: 10

----------
Tested on: wheat (Triticum aestivum)
assay-text: Test B pre-/postemergence
Assay type: in vivo
condition-description: Rate 125 g/ha, Postemergence
endpoint-name: Wheat plant response rating

• Cc1cnc(-n2cnc(C(F)(F)F)c2)nc1C(=O)c1cccc(C(F)(F)F)c1 = 3
• Cc1cnc(-n2cnc(C(F)(F)F)n2)nc1Cc1cccc(C(F)(F)F)c1 = 4
• CCc1cnc(-n2ccc(C(F)(F)F)n2)nc1C(=O)c1cccc(C(F)(F)F)c1 = 4
• CCc1cnc(-n2ccc(C(F)(F)F)n2)nc1C(=O)c1cccc(C#N)c1 = 3
• O=C(c1cccc(C(F)(F)F)c1)c1ccnc(-c2ccc(F)cc2F)n1 = 0
• Cc1cnc(-c2ccc(Cl)cc2F)nc1Cc1cccc(C#N)c1 = 0
• Cc1cnc(-c2cccc(C(F)(F)F)c2)nc1Cc1cccc(C#N)c1 = 1
• Cc1cnc(-c2ccc(Cl)c(Cl)c2)nc1Cc1cccc(C#N)c1 = 1

----------
Tested on: velvetleaf (Abutilon theophrasti)
assay-text: Test B pre-/postemergence
Format: in vivo
condition-description: Rate 62 g/ha, Postemergence
// reported Plant response rating, Velvetleaf for each item listed
endpoint-name: Plant response rating, Velvetleaf

- CCc1cnc(-n2ccc(C(F)(F)F)n2)nc1Cc1cccc(OC(F)(F)F)c1: 7
- Cc1cnc(-c2ccc(Cl)cc2)nc1Cn1ccc(C(F)(F)F)n1: 7
- Cc1cnc(-c2ccc(C(F)(F)F)cc2)nc1Cn1cc(I)cn1: 7

----------
Test system: smallflower flatsedge (Cyperus difformis)
assay-text: Test B flood test
Type: in vivo
condition-description: Rate 125 g/ha, Postemergence section (flood test species)
endpoint-name: S. Flatsedge plant response rating

- Cc1cnc(-c2cccc(C(F)(F)F)c2)nc1Cc1cccc(C#N)c1: 2
- CCc1cnc(-n2cnc(C(F)(F)F)c2)nc1C(=O)c1cccc(OC(F)(F)F)c1: 2
- Cc1cnc(-c2ccc(F)cc2F)nc1Cc1cccc(C#N)c1: 2
